Species on record: Rattus norvegicus
Assay: DrugMatrix - Regimen: Daily Repeat
Assay type: toxicity, organism-based, Sprague-Dawley
Parameters: regimen Daily Repeat, gender Male, age 6-8 weeks
Details: in vivo, po, 0 mg/kg, 120 h, tissue Blood, route oral GAVAGE, dose level Control, time 5 day, vehicle 100 % WATER
Recorded NEUTROPHIL, one value per entry.
Write down the numeric answer in % and omit the unit.

Below, each entry is followed by its recorded NEUTROPHIL result.
[
  {
    "Molecule": "CC(O)CO (stereo not given)",
    "NEUTROPHIL [%]": 6.5
  },
  {
    "Molecule": "C=CCC1(C(C)CCC)C(=O)NC(=O)NC1=O (stereo not given)",
    "NEUTROPHIL [%]": 8.67
  },
  {
    "Molecule": "C[C@H](CS)C(=O)N1CCC[C@H]1C(=O)O",
    "NEUTROPHIL [%]": 7.83
  },
  {
    "Molecule": "COc1cc2nc(N3CCN(C(=O)C4COc5ccccc5O4)CC3)nc(N)c2cc1OC (stereo not given)",
    "NEUTROPHIL [%]": 8.17
  }
]

For "Cc1onc(-c2ccccc2Cl)c1C(=O)N[C@@H]1C(=O)N2[C@@H]1SC(C)(C)[C@@H]2C(=O)O" the molecule record lists NEUTROPHIL as 6.5
